Every entry's value here was drawn from ChEMBL document CHEMBL6127079.

Tested on: Candida albicans
test: Antifungal activity against Candida albicans ATCC 76615 assessed as Polyoxin B MIC incubated for 24 hrs in presence of fluconazole by half broth dilution based checkerboard method
Assay type: functional
quantity: MIC (µg/mL)
I only need the number, in µg/mL, no unit after it.

Identify the reported MIC for the following entry. Cc1cc([N+](=O)[O-])ccc1NC(=O)C1CCN(CC(=O)Nc2ccc3c(c2)NC(=O)C2(CCNC2=O)C3)CC1 (racemic)
8

Identify the reported MIC for the following entry. O=C(/C=C/C(=O)Nc1nc2ccccc2s1)Nc1ccc2c(c1)NC(=O)C1(CCNC1=O)C2 (racemic)
2

Identify the reported MIC for the following entry. O=C(CN1CCC(C(=O)Nc2cccc3ccccc23)CC1)Nc1ccc2c(c1)NC(=O)C1(CCNC1=O)C2 (racemic)
16

Identify the reported MIC for the following entry. O=C(CN1CCC(C(=O)Nc2ccc(Br)cc2)CC1)Nc1ccc2c(c1)NC(=O)C1(CCNC1=O)C2 (racemic)
16

Identify the reported MIC for the following entry. O=C(/C=C/C(=O)Nc1ccc2c(c1)NC(=O)C1(CCNC1=O)C2)Nc1ccc(Br)cc1 (racemic)
8

Identify the reported MIC for the following entry. Cc1ccc(NC(=O)/C=C/C(=O)Nc2ccc3c(c2)NC(=O)C2(CCNC2=O)C3)cc1 (racemic)
8

Identify the reported MIC for the following entry. O=C(CN1CCC(C(=O)Nc2cccc(Br)c2)CC1)Nc1ccc2c(c1)NC(=O)C1(CCNC1=O)C2 (racemic)
16

Identify the reported MIC for the following entry. O=C(/C=C/C(=O)Nc1cccc2ccccc12)Nc1ccc2c(c1)NC(=O)C1(CCNC1=O)C2 (racemic)
8
